Recorded EC50, one value per entry.
System: HIV-1 (IIIB)
Assay: microbe, parasite or virus in culture
Format: cell-based
Conditions: Human immunodeficiency virus 1, IIIB, MT4, 120 h, HIV-1 (IIIB) in MT-4 cells, 5 days incubation, Cell Titer Glo; read-out: MT4 EC50
Put your answer as a value accompanied by its unit after it.

Provide one value: measured EC50 of `CC1=NO[C@@]2(CC[C@H](C)N3C[C@H]2n2cc(C(=O)NCc4ccc(F)cc4F)c(=O)c(O)c2C3=O)C1`
0.8 nM

Note EC50 for the compound shown: `C[C@H]1CC[C@]2(CC(C#CC(C)(C)S(C)(=O)=O)=NO2)[C@H]2CN1C(=O)c1c(O)c(=O)c(C(=O)NCc3c(F)cc(F)cc3F)cn12`
4.8 nM

Give the value of EC50 reported for the following: `CC(C)C1=NO[C@@]2(CC[C@H](C)N3C[C@H]2n2cc(C(=O)NCc4ccc(F)cc4F)c(=O)c(O)c2C3=O)C1`
1.9 nM

Specify reported EC50 for the compound shown: CO[C@@H]1CS[C@]2(CC[C@H](C)N3C[C@H]2n2cc(C(=O)NCc4c(F)cc(F)cc4F)c(=O)c(O)c2C3=O)O1 (single isomer, unassigned) [170 (peak 2)]
1.7 nM

For the compound `C[C@H]1CC[C@]2(CC(=O)N(Cc3nc4ccccc4s3)O2)[C@H]2CN1C(=O)c1c(O)c(=O)c(C(=O)NCc3c(F)cc(F)cc3F)cn12` , report EC50.
1.4 nM

Return EC50 for the following compound: `C[C@H]1CC[C@]2(CC(CF)=NO2)[C@H]2CN1C(=O)c1c(O)c(=O)c(C(=O)NCc3ncc(F)c(Cl)c3F)cn12`
3.9 nM

Supply EC50 value. Item: `C[C@H]1CC[C@@]2(CC(=O)N(Cc3ccc(F)cc3)O2)[C@H]2CN1C(=O)c1c(O)c(=O)c(C(=O)NCc3c(F)cc(F)cc3F)cn12`
11.5 nM

Determine its reported EC50: `C[C@H]1CC[C@]2(CC(=O)N(Cc3ccc(Cl)cc3)O2)[C@H]2CN1C(=O)c1c(O)c(=O)c(C(=O)NCc3c(F)cc(F)cc3F)cn12`
1.6 nM

# return recorded EC50 for entry `COC1=NO[C@@]2(C=C[C@H](C)N3C[C@H]2n2cc(C(=O)NCc4ccc(F)c(Cl)c4F)c(=O)c(O)c2C3=O)C1`
0.4 nM

Report EC50 for `CC1=NO[C@]2(C1)C[C@H](F)[C@H](C)N1C[C@H]2n2cc(C(=O)NCc3ccc(F)cc3F)c(=O)c(O)c2C1=O`
1.6 nM

Supply recorded EC50 for `COC1=NO[C@@]2(CC[C@H](C)N3C[C@H]2n2cc(C(=O)NCc4ccc(F)cc4F)c(=O)c(O)c2C3=O)C1` here.
0.8 nM

Return value of EC50 for input `C[C@H]1CC[C@]2(CCC(=O)N2)[C@H]2CN1C(=O)c1c(O)c(=O)c(C(=O)NCc3c(F)cc(F)cc3F)cn12` , no commentary.
86.5 nM

Give the reported EC50 for this compound. `C[C@H]1CC[C@@]2(ON=C3OCCC[C@@H]32)[C@H]2CN1C(=O)c1c(O)c(=O)c(C(=O)NCc3c(F)cc(F)cc3F)cn12`
0.8 nM

Name the recorded EC50 of the compound listed here: `C[C@H]1CC[C@]2(CC(C(C)(F)F)=NO2)[C@H]2CN1C(=O)c1c(O)c(=O)c(C(=O)NCc3c(F)cc(F)cc3F)cn12`
3.3 nM

Please give measured EC50 of the following entry: `C[C@H]1CC[C@]2(CC(N3CCCC3)=NO2)[C@H]2CN1C(=O)c1c(O)c(=O)c(C(=O)NCc3c(F)cc(F)cc3F)cn12`
1.8 nM

Taken from patent US20250115620A1.
